# target under test: HLA-B*46:01
# protocol details: IEDB peptide-MHC binding, purified MHC/direct/fluorescence; filed as Kd, often an IC50 or EC50 that approximates it; bounds were set here for any values at or beyond the usual limits of such assays
# setup conditions: source organism: Vibrio cholerae
pKd: −log10 of the molar value.
reported endpoint: pKd

The reported pKd value, HLA-B*46:01, for FPLTQRDVL reads ≤ 4.70

###

# target under test: HLA-A*24:02
# protocol details: IEDB peptide-MHC binding, purified MHC/competitive/radioactivity; filed as Kd, often an IC50 or EC50 that approximates it; bounds were set here for any values at or beyond the usual limits of such assays
# setup conditions: source organism: Mammarenavirus lassaense
reported endpoint: Kd

Lookup result for AGFPAGLTY ; measured Kd: ≥ 77.5 µM

###

# target under test: HLA-A*11:01
# protocol details: IEDB peptide-MHC binding, purified MHC/competitive/radioactivity; filed as Kd, often an IC50 or EC50 that approximates it; bounds were set here for any values at or beyond the usual limits of such assays
# setup conditions: source organism: Dengue virus 1 Brazil/97-11/1997
Answer each item with its documented log10(Kd).
Hi team, quick reminder: these entries are log10 of Kd (nM).

Answered cases to consult:
VTNPAVLRK: 1.22
CTGSFKLEK: 1.60

Here are 3 sequences. What values of log10(Kd) were reported for them?
1. MSAAIKDSK
2. KALKLSWFKK
3. GLAMGIMMLK

(A)
[3.05, 2.13, 2.19]

###

Give Kd for every item shown.
# target under test: HLA-A*33:01
# protocol details: IEDB peptide-MHC binding, purified MHC/competitive/radioactivity; filed as Kd, often an IC50 or EC50 that approximates it; bounds were set here for any values at or beyond the usual limits of such assays
# setup conditions: source organism: Dengue virus 3 Sri Lanka/1266/2000
Answers are plain numbers, in nM.

IFTLTVAWR: 5.89

Consider the record given below.
Entry IVSSVNMVSR , Kd reported as 346

###

# target under test: HLA-B*57:01
# protocol details: IEDB peptide-MHC binding, purified MHC/competitive/fluorescence; filed as Kd, often an IC50 or EC50 that approximates it; bounds were set here for any values at or beyond the usual limits of such assays
# setup conditions: source organism: Pleistophora sp. LS
reported endpoint: Kd

Noted for VELQIGWTV : its Kd reads ≥ 20 µM

###

# target under test: HLA-B*44:02
# protocol details: IEDB peptide-MHC binding, purified MHC/direct/fluorescence; filed as Kd, often an IC50 or EC50 that approximates it; bounds were set here for any values at or beyond the usual limits of such assays
# setup conditions: source organism: Orthohantavirus andesense
reported endpoint: Kd

The measured Kd associated with YRRKLTNPA reads ≥ 20 µM

###

# target under test: HLA-B*27:03
# protocol details: IEDB peptide-MHC binding, purified MHC/direct/fluorescence; filed as Kd, often an IC50 or EC50 that approximates it; bounds were set here for any values at or beyond the usual limits of such assays
# setup conditions: source organism: Encephalitozoon cuniculi GB-M1
reported endpoint: Kd

Given the sequence FSFFMNENF and test system HLA-B*27:03, the measured Kd is ≥ 20 µM

###

# target under test: HLA-B*15:01
# protocol details: IEDB peptide-MHC binding, purified MHC/competitive/fluorescence; filed as Kd, often an IC50 or EC50 that approximates it; bounds were set here for any values at or beyond the usual limits of such assays
# setup conditions: source organism: Burkholderia orbicola
reported endpoint: Kd

Value of measured Kd for the entry RIEQLYPFA : ≥ 20 µM

###

# target under test: HLA-A*69:01
# protocol details: IEDB peptide-MHC binding, purified MHC/direct/fluorescence; filed as Kd, often an IC50 or EC50 that approximates it; bounds were set here for any values at or beyond the usual limits of such assays
# setup conditions: source organism: Marburg virus - Musoke, Kenya, 1980
pKd: −log10 of the molar value.
Exercise: state measured pKd for each of the sequences provided.

SEINNLNLT: ≤ 4.70

Please find the next sequence below.
Data point: ALFHKVQSY ; pKd = ≤ 4.70

###

# target under test: HLA-B*08:01
# protocol details: IEDB peptide-MHC binding, purified MHC/direct/fluorescence; filed as Kd, often an IC50 or EC50 that approximates it; bounds were set here for any values at or beyond the usual limits of such assays
# setup conditions: source organism: West Nile virus
pKd: −log10 of the molar value.
reported endpoint: pKd

Entry KCRVKMEKL ; pKd = ≤ 4.70

###

# target under test: HLA-A*31:01
# protocol details: IEDB peptide-MHC binding, purified MHC/competitive/radioactivity; filed as Kd, often an IC50 or EC50 that approximates it; bounds were set here for any values at or beyond the usual limits of such assays
# setup conditions: source organism: Dengue virus 2 Peru/IQT2913/1996
reported endpoint: Kd
Give me the value, and tack the unit on after it.

# Kd of ATTFITPMLR = 48.6 nM

###

# target under test: HLA-B*15:03
# protocol details: IEDB peptide-MHC binding, purified MHC/competitive/radioactivity; filed as Kd, often an IC50 or EC50 that approximates it; bounds were set here for any values at or beyond the usual limits of such assays
# setup conditions: source organism: Vaccinia virus WR
reported endpoint: Kd (nM)
Give bare numbers, in nM.

Recorded Kd, per entry:
LSVPAAIMM: 68.5
ILMIFISSF: 11.9
KTKETNRIY: 172
FQTVNFNNA: 305
IQHNFTQIA: 0.251

// each listed sequence needs a value for Kd
1. KWKYENPCK
2. FYSSFVQTF
3. LPVYFGSVF
4. VLFLQQSIF
5. FQRKPFNNI
6. MTVVSAVHF
7. FAAMIIRSF

(A)
[296, 38.8, 123, 0.61, 8.9, 278, 1.33]

###

# target under test: HLA-B*27:05
# protocol details: IEDB peptide-MHC binding, purified MHC/competitive/fluorescence; filed as Kd, often an IC50 or EC50 that approximates it; bounds were set here for any values at or beyond the usual limits of such assays
# setup conditions: source organism: Campylobacter jejuni subsp. jejuni NCTC 11168 = ATCC 700819
reported endpoint: pKd
Numbers only, as −log10 of the molar value.

Entry GKLKYRASY ; assay system HLA-B*27:05; pKd recorded at 5.36

###

# target under test: HLA-A*11:01
# protocol details: IEDB peptide-MHC binding, purified MHC/competitive/radioactivity; filed as Kd, often an IC50 or EC50 that approximates it; bounds were set here for any values at or beyond the usual limits of such assays
# setup conditions: source organism: Dengue virus 1 Nauru/West Pac/1974
reported endpoint: Kd (nM)
Give bare numbers, in nM.

ATTIITPMMR: 162
LTMFLITENK: 30.4
TTIITPMMR: 215

Next item in the queue.
Summary for this sequence, VSQLAKRFSK : Kd is 126

###

# target under test: HLA-A*30:01
# protocol details: IEDB peptide-MHC binding, purified MHC/direct/fluorescence; filed as Kd, often an IC50 or EC50 that approximates it; bounds were set here for any values at or beyond the usual limits of such assays
# setup conditions: source organism: Vibrio cholerae
pKd: −log10 of the molar value.
reported endpoint: pKd

Observed pKd on HLA-A*30:01, entry FPRSAERAG , equals ≤ 5.00

###

# target under test: HLA-B*40:01
# protocol details: IEDB peptide-MHC binding, purified MHC/direct/fluorescence; filed as Kd, often an IC50 or EC50 that approximates it; bounds were set here for any values at or beyond the usual limits of such assays
# setup conditions: source organism: Giardia lamblia ATCC 50803
pKd: −log10 of the molar value.
reported endpoint: pKd

pKd reading for DYIYLPLLK : ≤ 4.70

###

# target under test: HLA-A*03:01
# protocol details: IEDB peptide-MHC binding, purified MHC/competitive/fluorescence; filed as Kd, often an IC50 or EC50 that approximates it; bounds were set here for any values at or beyond the usual limits of such assays
# setup conditions: source organism: Escherichia coli O157:H7 str. EDL933
reported endpoint: Kd (nM)
Answers are plain numbers, in nM.

Form field Kd, entry KMARAGLGH : 25.1

###

# target under test: HLA-A*03:01
# protocol details: IEDB peptide-MHC binding, purified MHC/direct/fluorescence; filed as Kd, often an IC50 or EC50 that approximates it; bounds were set here for any values at or beyond the usual limits of such assays
# setup conditions: source organism: Orthohantavirus andesense
reported endpoint: Kd

Entry under test: YRRKLTNPA . Its Kd was ≥ 20 µM

###

# target under test: HLA-A*33:01
# protocol details: IEDB peptide-MHC binding, purified MHC/competitive/radioactivity; filed as Kd, often an IC50 or EC50 that approximates it; bounds were set here for any values at or beyond the usual limits of such assays
# setup conditions: source organism: Triticum aestivum
reported endpoint: Kd

Kd reading for QQQQQQQQK : ≥ 56.4 µM

###

# target under test: HLA-A*11:01
# protocol details: IEDB peptide-MHC binding, purified MHC/direct/fluorescence; filed as Kd, often an IC50 or EC50 that approximates it; bounds were set here for any values at or beyond the usual limits of such assays
# setup conditions: source organism: Coxiella burnetii
reported endpoint: Kd

Field Kd (HLA-A*11:01), entry SYGNANVSF : ≥ 5 µM
